- test_protocol: refractive index (Na D-line) (dimensionless)
- condition_set: 299.2 K; 101.33 kPa; Liquid; Standard Abbe refractometry
readout_name: refractive index

- compound: "CCCCn1cc[n+](C)c1.F[P-](F)(F)(F)(F)F [1-butyl-3-methylimidazolium hexafluorophosphate]"
  readout_name: "refractive index"
  test_result: 1.4093
- compound: "CCCCn1cc[n+](C)c1.F[B-](F)(F)F [1-butyl-3-methylimidazolium tetrafluoroborate]"
  readout_name: "refractive index"
  test_result: 1.4216
- compound: "CCCCn1cc[n+](C)c1.COS(=O)(=O)[O-] [1-butyl-3-methylimidazolium methyl sulfate]"
  readout_name: "refractive index"
  test_result: 1.4789
- compound: "CCCCn1cc[n+](C)c1.O=S(=O)([O-])C(F)(F)F [1-butyl-3-methylimidazolium trifluoromethanesulfonate]"
  readout_name: "refractive index"
  test_result: 1.4366

---

- test_protocol: refractive index (Na D-line) (dimensionless)
- condition_set: 301.2 K; 101.33 kPa; Liquid; Standard Abbe refractometry
readout_name: refractive index

- compound: "CCCCn1cc[n+](C)c1.F[P-](F)(F)(F)(F)F [1-butyl-3-methylimidazolium hexafluorophosphate]"
  refractive index: 1.4089
- compound: "CCCCn1cc[n+](C)c1.O=S(=O)([O-])C(F)(F)F [1-butyl-3-methylimidazolium trifluoromethanesulfonate]"
  refractive index: 1.4362
- compound: "CCCCn1cc[n+](C)c1.F[B-](F)(F)F [1-butyl-3-methylimidazolium tetrafluoroborate]"
  refractive index: 1.4211
- compound: "CCCCn1cc[n+](C)c1.COS(=O)(=O)[O-] [1-butyl-3-methylimidazolium methyl sulfate]"
  refractive index: 1.4784
